Item-by-item account of log10 of Ki
target_of_assay: GSK3β (H350L) (Homo sapiens (Human), UniProt P49841)
Sequence (P49841 whole entry, stated change not applied): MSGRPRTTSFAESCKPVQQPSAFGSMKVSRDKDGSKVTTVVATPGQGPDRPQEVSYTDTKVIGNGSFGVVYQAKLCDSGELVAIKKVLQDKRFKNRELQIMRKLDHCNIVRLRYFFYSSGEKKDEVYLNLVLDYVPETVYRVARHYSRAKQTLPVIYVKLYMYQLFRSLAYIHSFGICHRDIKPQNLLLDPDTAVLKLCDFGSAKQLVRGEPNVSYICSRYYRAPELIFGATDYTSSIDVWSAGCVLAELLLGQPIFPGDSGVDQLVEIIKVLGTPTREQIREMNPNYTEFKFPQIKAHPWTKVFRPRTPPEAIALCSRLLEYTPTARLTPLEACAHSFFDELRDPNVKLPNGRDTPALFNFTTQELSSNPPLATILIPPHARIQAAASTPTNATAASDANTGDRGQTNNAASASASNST
experiment_summary: biochemical
measurement_context: GSK3β Ki (nM)
Hi team, quick reminder: these entries are log10 of Ki (nM).

Recorded results for 2 compounds are shown here.
{"compound": "Cc1ccc(CC(=O)Nc2cc([C@H]3CC[C@@H](OC(=O)NC(C)CC(F)(F)F)C3)[nH]n2)cn1 (single isomer, unassigned) [Example 75]", "target_of_assay": "GSK3β (H350L) (Homo sapiens (Human), UniProt P49841)", "log10 of Ki": 0.98}
{"compound": "COc1ccc(CC(=O)Nc2cc([C@H]3CC[C@@H](OC(=O)N4C[C@@H](C#N)[C@@H]4C)C3)[nH]n2)cn1 (single isomer, unassigned) [Example 158]", "target_of_assay": "GSK3β (H350L) (Homo sapiens (Human), UniProt P49841)", "log10 of Ki": -0.11}

Fill blank: measured log10 of Ki of the compound CCC(NC(=O)O[C@@H]1CC[C@H](c2cc(NC(=O)Cc3cc(C)no3)n[nH]2)C1)C(F)(F)F (single isomer, unassigned) [Example 396] is ____. 2.14

I would be grateful if you could share the reported log10 of Ki for Cc1ccc(CC(=O)Nc2cc([C@H]3CC[C@@H](OC(=O)NC(C)C(C)(F)F)C3)[nH]n2)cn1 (single isomer, unassigned) [Example 389] . 1.26

Query: log10 of Ki; subject: CCCNC(=O)O[C@H]1CC[C@@H](c2cc(NC(=O)C3COc4ccccc43)n[nH]2)C1 (single isomer, unassigned) [Example 24] 1.31

# get_value(readout='log10 of Ki', item= CCC(NC(=O)O[C@@H]1CC[C@H](c2cc(NC(=O)Cc3ccc(C)nc3)n[nH]2)C1)C(F)(F)F (single isomer, unassigned) [Example 398] ) 1.64

----------
Ki for assorted compounds
target_of_assay: CDK2/Cyclin E1 full length (Homo sapiens (Human), UniProt P24941)
experiment_summary: CDK2/Cyclin E1 full length mobility shift assay

Consider the compound CCNC(=O)O[C@@H]1CC[C@H](c2cc(NC(=O)Cc3ccnc(OC)c3)n[nH]2)C1 [Example 232] and give its measured Ki. 1.54 nM

I am curious: what Ki value has been reported for CC(C)(C)NC(=O)O[C@@H]1CC[C@H](c2cc(NC(=O)Cc3cnn(CC(F)(F)F)n3)n[nH]2)C1 [Example 318] ? 0.53 nM

Quick check: Ki of CC(CC(F)(F)F)NC(=O)O[C@@H]1CC[C@H](c2cc(NC(=O)Cc3ccn(C)n3)n[nH]2)C1 (single isomer, unassigned) [Example 65] ? 2.21 nM

Item under review: Cc1ccnc(CC(=O)Nc2cc([C@H]3CC[C@@H](OC(=O)NC4(C)CC4)C3)[nH]n2)c1 [Example 425] . Reported Ki? 1.05 nM

Which Ki value belongs to COc1ccc(CC(=O)Nc2cc([C@@H]3CC[C@H](OC(=O)N[C@H]4CC[C@H](O)CC4)C3)[nH]n2)cn1 [Example 556] ? 0.46 nM

What value of Ki has been reported for the following compound? Cc1cnc(CC(=O)Nc2cc([C@H]3CC[C@@H](OC(=O)N4[C@@H](C)C[C@@H]4C)C3)[nH]n2)o1 [Example 606] 0.63 nM

Quick one: Ki of Cc1cnc(CC(=O)Nc2cc([C@H]3CC[C@@H](OC(=O)NC4(C)CC4)C3)[nH]n2)cn1 [Example 428] ? 0.4 nM

Cited source for all entries: patent US11014911B2
